Cited source for all entries: the ASAP Discovery antiviral challenge data (2025)

Classify as follows. Reported logD greater than or equal to 2: Criterion met. Reported logD below: Criterion not met.

Consider the following illustrative entries.
molecule	group
N#C[C@H](Nc1cccc(-c2nn[nH]n2)c1)c1cc(Cl)cc(NC(=O)OCc2ccccc2)c1 (racemic)	Criterion met
CC(C)[C@H](Nc1ncnc2[nH]c(-c3cnn(CC(=O)N(C)C)c3)cc12)c1ccc2c(c1)S(=O)(=O)CCC2 (racemic)	Criterion met
Clc1ccc2[nH]cc(Cc3ccc(-c4nn[nH]n4)cc3)c2c1	Criterion met

API: the following record is the query input.
(Q) Assess whether reported logD for O=C(Nc1ccc2c(c1)CNC2)c1cc(Cl)cc2c1CCC2 sits at 2 or higher.
(A) Criterion not met

---

- condition: mouse; liver_microsomes
quantity.measured: microsomal CLint (µL/min/mg)
One number for each entry, in µL/min/mg.

As a guide, the following entries are already answered.
compound	microsomal CLint / µL/min/mg
COc1ccc(C(=O)Nc2cccc(/C=C3/C(=O)NC(=O)c4ccccc43)c2)cc1	127
CC(C)NC(=O)[C@H](Nc1ccc2c(c1)CNC2)c1cc(Cl)cc2[nH]c(-c3ccccc3)nc12 (single isomer, unassigned)	11

Batch: microsomal CLint for all items listed.
1. CNC(=O)c1c[nH]c2ncnc(N[C@H](c3ccc4c(c3)NC(=O)CO4)C(C)C)c12 (racemic)
2. Nc1nc(-c2ccccc2)nc2[nH]nc(Nc3ccc(C(F)(F)F)cc3)c12

(A)
113
11.2

---

- condition: mouse; liver_microsomes
Classify as follows. Reported microsomal CLint greater than or equal to 70 µL/min/mg: Yes. Reported microsomal CLint below: No.

Consider the following illustrative entries.
compound	group
O=C(Nc1cc2c(c(-c3c[nH]c(=O)c(F)c3)c1)CNC2)c1cc(F)cc2[nH]ncc12	Yes
Cn1ncc(-c2cc3c(N[C@H](c4ccc5c(n4)OCCO5)C(C)(C)C)ncnc3[nH]2)c1C#N (single isomer, unassigned)	Yes
CCNC(=O)c1cc2c(N[C@H](c3ccc4c(c3)OCCO4)C(C)C)ncnc2[nH]1 (racemic)	Yes
CCNC(=O)c1cc2c(N[C@H](c3ccc4c(c3)S(=O)(=O)CCO4)C(C)C)ncnc2[nH]1 (racemic)	No
CC(C)(C)[C@H](Nc1ncnc2[nH]c(-c3cnn(CC(N)=O)c3)cc12)c1ccc2c(c1)OCCO2 (racemic)	No
O=C(Nc1ccc2c(c1)CNC2)c1cc(Cl)cc2cn[nH]c12	No
CC(C)[C@H](Nc1ncnc2[nH]c(-c3cnn(C)c3C#N)cc12)c1ccc2c(c1)OCCO2	Yes
CC(C)[C@H](Nc1ncnc2[nH]c(-c3cnn(CCC(N)=O)c3)cc12)c1ccc2c(c1)OCCO2 (racemic)	No

API: the following record is the query input.
(Q) Assess whether reported microsomal CLint for CCNC(=O)c1cc2c(N[C@H](c3ccc4c(c3)S(=O)(=O)NCC4)C(C)C)ncnc2[nH]1 (racemic) sits at 70 µL/min/mg or higher.
(A) No

---

Assignment: determine reported logD for the given molecules.
Numbers only.

Batch: logD for all items listed.
1. O=C(Nc1cc(Cl)cc(C(=O)Nc2cccc(-c3nnn[nH]3)c2)c1)OCc1ccccc1
2. O=C(Nc1cc(Cl)cc(C(=O)Nc2ccc3c(c2)CNC3)c1)OCc1ccccc1
3. O=C(Nc1cc(Cl)cc([C@H](Nc2cccc(-c3nn[nH]n3)c2)C(=O)NCc2ccccc2)c1)OCc1ccccc1 (racemic)
4. CNC(=O)c1cc2c(N[C@H](c3ccc4c(c3)OCCO4)C(C)C)ncnc2[nH]1 (racemic)
5. CNC(=O)c1c[nH]c2ncnc(N[C@H](c3ccc4c(c3)S(=O)(=O)CCC4)C(C)C)c12 (racemic)
6. CNC(=O)c1cc2c(N[C@H](c3ccc4c(c3)S(=O)(=O)CCC4)C(C)C)ncnc2[nH]1 (racemic)
7. O=C(Nc1ccc2c(c1)CNC2)c1cc(F)cc2[nH]c(-c3ccc(F)cc3)nc12
8. O=C(Nc1cc(Cl)cc([C@H]2CN(Cc3ccccc3)C[C@@H]2c2cccc(-c3nn[nH]n3)c2)c1)OCc1ccccc1 (racemic)

(A)
1. 3.7
2. 2.8
3. 3.7
4. 2.76
5. 2.5
6. 2.4
7. 2.9
8. 4.1

Batch: logD for all items listed.
1. NCc1cccc(NC(=O)CN(C(=O)OCc2ccccc2)c2ccc(OCc3ccccc3)cc2)c1
2. CCc1cc(C(=O)Nc2cccc(CN)c2)sc1-c1ccc(Cl)cc1
3. CC(C)c1nc2c(C(=O)Nc3cccc(CN)c3)cccc2[nH]1

(A)
2.9
4.3
1.9

Batch: logD for all items listed.
1. CC(C)[C@H](Nc1ncnc2[nH]c(-c3cnn(CC(N)=O)c3)cc12)c1ccc2c(n1)OCCO2 (racemic)
2. O=C(NCC(F)F)[C@H](Nc1cc2c(cc1Br)CNC2)c1cc(Cl)cc(C2CC2)c1 (racemic)
3. COc1cc(-c2cc(NC(=O)c3cc(F)cc4[nH]ncc34)cc3c2CNC3)ccn1
4. CNC(=O)Cn1cc(-c2cc3c(N[C@H](c4ccc5c(c4)OCCO5)C(C)C)ncnc3[nH]2)cn1 (racemic)
5. O=C1Cc2c(cc(F)cc2C(=O)Nc2ccc3c(c2)CNC3)N1
6. COCc1cc(Cl)cc([C@H](Nc2ccc3c(c2)CNC3)C(=O)NCC(F)F)c1 (racemic)
7. CNC(=O)c1cc(Cl)ccc1NS(=O)(=O)c1ccc(Oc2ccccc2Cl)cc1

(A)
1: 2.4; 2: 2.9; 3: 2; 4: 2.9; 5: -0.2; 6: 0.2; 7: 2.4

Batch: logD for all items listed.
1. COc1cc(Cl)cc([C@H](Nc2ccc3c(c2)CNC3)C(=O)NCC(F)F)c1 (racemic)
2. O=C(O)c1cc(Cl)ccc1NS(=O)(=O)c1ccc(Oc2ccccc2Cl)cc1

(A)
0.5
3

Batch: logD for all items listed.
1. Cn1ncc2c(C(=O)Nc3ccc4c(c3)CNC4)cc(Br)cc21
2. CNC(=O)c1c[nH]c2ncnc(N[C@H](c3ccc4c(c3)OCCO4)C(C)C)c12 (racemic)
3. O=C1Cc2c(cccc2C(=O)Nc2ccc3c(c2)CNC3)N1
4. CC(C)[C@H](Nc1ncnc2[nH]c(-c3cnn(CCC(N)=O)c3)cc12)c1ccc2c(c1)OCCO2 (racemic)
5. CC(C)[C@H](Nc1ncnc2[nH]c(-c3cnn(C)c3C#N)cc12)c1ccc2c(c1)NC(=O)CO2 (racemic)
6. O=C(Nc1cc2c(cc1Br)CNC2)c1cc(F)cc2[nH]ncc12
7. CNC(=O)c1c[nH]c2ncnc(N[C@H](c3ccc4c(c3)NC(=O)CO4)C(C)C)c12 (racemic)
8. CC(C)n1cc2c(C(=O)Nc3ccc4c(c3)CNC4)cc(Cl)cc2n1

(A)
1
3.6
0.3
3
4.1
1.1
3.2
1.6

Batch: logD for all items listed.
1. COCCNC(=O)c1c[nH]c2ncnc(N[C@H](c3ccc4c(c3)S(=O)(=O)CCC4)C(C)C)c12 (racemic)
2. CNC(=O)c1cc2c(N[C@H](c3ccc4c(c3)NC(=O)CO4)C(C)C)ncnc2[nH]1 (single isomer, unassigned)

(A)
[2.8, 2.9]

Batch: logD for all items listed.
1. COc1cc(C#N)cc([C@H](Nc2ccc3c(c2)CNC3)C(=O)NCC(F)F)c1 (racemic)
2. CNCc1cc(-c2cc3c(N[C@H](c4ccc5c(c4)S(=O)(=O)CCC5)C(C)C)ncnc3[nH]2)co1 (racemic)
3. Cc1cc(OCc2ccccc2)ccc1NS(=O)(=O)c1ccc(Cl)cc1C(=O)O
4. O=C(Nc1cc2c(c(C3=CCOCC3)c1)CNC2)c1cc(F)cc2[nH]ncc12

(A)
1. -0.4
2. 2.1
3. 2.7
4. 0.9

The value of logD measured for the molecule CC(C)[C@H](Nc1ncnc2[nH]cc(C(N)=O)c12)c1ccc2c(c1)OCCO2 (racemic) turned out to be 3.2

---

- condition: mdck_mdr1
Classify as follows. Reported Papp greater than or equal to 1 ×10⁻⁶ cm/s: Condition met. Reported Papp below: Condition not met.

Consider the following illustrative entries.
compound	group
O=C(Nc1cc2c(c(C3=CCOCC3)c1)CNC2)c1cc(F)cc2[nH]ncc12	Condition met
CNC(=O)c1c[nH]c2ncnc(N[C@H](c3ccc4c(c3)S(=O)(=O)CCC4)C(C)C)c12 (racemic)	Condition met
CC(C)[C@@H](Nc1ncnc2[nH]c(-c3cnn(C)c3C#N)cc12)c1ccc2c(c1)OCCO2	Condition met
CC(C)[C@H](Nc1ncnc2[nH]c(-c3cnn(C)c3C#N)cc12)c1ccc2c(n1)NC(=O)CO2 (racemic)	Condition met
O=C(Nc1cc(Br)c2c(c1)CNC2)c1cc(F)cc2[nH]ncc12	Condition met

API: the following record is the query input.
(Q) Assess whether reported Papp for CC(C)[C@H](Nc1ncnc2[nH]ccc12)c1ccc2c(c1)S(=O)(=O)CCO2 (racemic) sits at 1 ×10⁻⁶ cm/s or higher.
(A) Condition met

---

- condition: mdck_mdr1
quantity.measured: Papp
State the value, then name its unit.

Batch: Papp for all items listed.
1. O=C1Cc2cc(C(=O)Nc3ccc4c(c3)CNC4)ccc2N1
2. C[C@H]1O[C@@H](O[C@H]2[C@@H](O)C[C@H](O[C@H]3[C@@H](O)C[C@H](O[C@H]4CC[C@@]5(C)[C@H](CC[C@@H]6[C@@H]5C[C@@H](O)[C@]5(C)[C@@H](C7=CC(=O)OC7)CC[C@]65O)C4)O[C@@H]3C)O[C@@H]2C)C[C@H](O)[C@@H]1O

(A)
["0.873 ×10⁻⁶ cm/s", "0.6 ×10⁻⁶ cm/s"]

Batch: Papp for all items listed.
1. O=C(Nc1cccc2c(C(=O)N[C@H]3c4ccccc4C[C@H]3C(=O)O)c[nH]c12)NC1CC1 (racemic)
2. O=C(Nc1ccc2c(c1)CNC2)c1cc(Br)cc2[nH]c(-c3ccccc3)nc12
3. CNC(=O)c1cc2c(N[C@H](c3ccc4c(c3)OCCO4)C(C)C)ncnc2[nH]1 (racemic)

(A)
1. 1.8 ×10⁻⁶ cm/s
2. 0.0942 ×10⁻⁶ cm/s
3. 1.96 ×10⁻⁶ cm/s
